Molecular target: NAD-dependent protein deacetylase sirtuin-2 (Homo sapiens)
Experiment: Inhibition of recombinant GST-tagged SIRT2 (unknown origin) using Fluor de Lys acetylated KI179 as substrate at 200 uM incubated for 5 mins followed by enzyme addition measured after 1 hr by fluorescence assay relative to control
quantity kind: inhibition (%)

Here is how some molecules turned out for inhibition.
1) O=C(CSc1ncnc2c1oc1ccccc12)Nc1cccc(O)c1 35
2) O=C(/C=C/c1ccccc1)Nc1ccc2oc(-c3ccccc3Cl)nc2c1 78

a = O=C(Cc1ccccc1)Nc1ccc2oc(-c3cc(Cl)ccc3Cl)nc2c1
b = O=C(Cc1ccccc1)Nc1ccc2oc(-c3ccccc3Cl)nc2c1
Consider a and b . Which of these has its inhibition at a higher number? Could you answer with the label of the item you picked?
a

P = O=C(Cc1ccccc1)Nc1ccc2oc(-c3ccc(Cl)cc3Cl)nc2c1
Q = O=C(Cc1ccccc1)Nc1ccc2oc(-c3cccc(Cl)c3Cl)nc2c1
Consider P and Q . Which of these has its inhibition at a higher number? Could you answer with the label of the item you picked?
P
(P: 72%, Q: 40%)

---

Target: NAD-dependent protein deacetylase sirtuin-3, mitochondrial (Homo sapiens) (UniProt Q9NTG7)
Sequence (Q9NTG7 whole entry): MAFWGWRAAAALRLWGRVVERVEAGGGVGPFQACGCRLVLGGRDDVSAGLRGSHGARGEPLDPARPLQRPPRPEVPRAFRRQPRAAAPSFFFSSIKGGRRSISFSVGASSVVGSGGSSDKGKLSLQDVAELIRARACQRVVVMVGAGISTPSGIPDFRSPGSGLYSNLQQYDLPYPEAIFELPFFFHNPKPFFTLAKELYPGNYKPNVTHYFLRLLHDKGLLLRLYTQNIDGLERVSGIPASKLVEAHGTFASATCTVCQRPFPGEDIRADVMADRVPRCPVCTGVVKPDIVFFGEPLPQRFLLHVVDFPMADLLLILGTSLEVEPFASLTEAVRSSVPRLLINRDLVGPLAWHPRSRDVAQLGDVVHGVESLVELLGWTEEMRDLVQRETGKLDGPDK
Test: Inhibition of recombinant His-tagged SIRT3 (unknown origin) using Fluor de Lys acetylated KI179 as substrate at 200 uM incubated for 5 mins followed by enzyme addition measured after 1 hr by fluorescence assay relative to control
quantity kind: inhibition (%)

molecule	unit text	numeric value
O=C(Cc1ccccc1)Nc1ccc2oc(-c3ccc(F)cc3Cl)nc2c1	%	13

I = O=C1CC(N2CCN(c3ccc(O)cc3)CC2)C(=O)N1c1ccccc1 (stereo unspecified)
II = O=C(Cc1ccccc1)Nc1ccc2oc(-c3cccc(Cl)c3)nc2c1
III = CCOc1ccc(N2C(=O)CC(N3CCN(C(=O)c4cccnc4)CC3)C2=O)cc1 (stereo unspecified)
Arrange the 3 entries by inhibition so the values rise. List the labels, following the order given in the request.
I, III, II

P = Cc1ccccc1CC1CCN(CCCNC(=O)Nc2ccccc2)CC1
Q = CCOc1ccc(N2C(=O)CC(N3CCN(C(=O)c4ccccc4)CC3)C2=O)cc1 (stereo unspecified)
Which value of inhibition is smaller, the one for P or the one for Q ? Could you answer with the label of the item you picked?
Q
(Q: 5%, P: 10%)

---

Biological target: NAD-dependent protein deacetylase sirtuin-1 (Homo sapiens) (UniProt Q96EB6)
Sequence (Q96EB6 whole entry): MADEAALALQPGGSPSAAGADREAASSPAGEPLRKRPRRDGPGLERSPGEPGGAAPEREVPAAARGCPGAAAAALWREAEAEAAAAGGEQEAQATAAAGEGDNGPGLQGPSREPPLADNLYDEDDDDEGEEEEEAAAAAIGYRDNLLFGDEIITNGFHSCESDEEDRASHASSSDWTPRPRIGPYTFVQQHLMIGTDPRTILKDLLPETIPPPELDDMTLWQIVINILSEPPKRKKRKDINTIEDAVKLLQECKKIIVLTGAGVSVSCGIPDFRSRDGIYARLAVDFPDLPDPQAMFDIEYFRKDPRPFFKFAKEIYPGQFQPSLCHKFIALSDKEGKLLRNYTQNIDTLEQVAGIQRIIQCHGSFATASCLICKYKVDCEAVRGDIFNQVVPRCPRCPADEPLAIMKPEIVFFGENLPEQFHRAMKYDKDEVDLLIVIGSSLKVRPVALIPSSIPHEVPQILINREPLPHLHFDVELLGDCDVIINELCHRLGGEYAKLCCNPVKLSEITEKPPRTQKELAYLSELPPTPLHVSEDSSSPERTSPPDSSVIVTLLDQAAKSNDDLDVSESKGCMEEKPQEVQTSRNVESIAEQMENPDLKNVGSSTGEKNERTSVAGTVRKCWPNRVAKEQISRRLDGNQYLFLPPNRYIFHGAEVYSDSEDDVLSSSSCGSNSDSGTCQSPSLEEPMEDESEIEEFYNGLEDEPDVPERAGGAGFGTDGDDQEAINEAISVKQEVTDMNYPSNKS
Experiment: Inhibition of recombinant GST-tagged SIRT1 (unknown origin) using Fluor de Lys acetylated KI177 as substrate at 200 uM incubated for 5 mins followed by enzyme addition measured after 1 hr by fluorescence assay relative to control
quantity kind: inhibition

For the molecule `O=C(Cc1ccccc1)Nc1ccc2oc(-c3ccc(Cl)cc3Cl)nc2c1` , the measured inhibition on NAD-dependent protein deacetylase sirtuin-1 (Homo sapiens) (UniProt Q96EB6) was 27%

For the molecule `O=C(Cc1ccccc1)Nc1ccc2oc(-c3cc(Cl)ccc3Cl)nc2c1` , the measured inhibition on NAD-dependent protein deacetylase sirtuin-1 (Homo sapiens) (UniProt Q96EB6) was 33%

For the molecule `O=C(/C=C/c1ccccc1)Nc1ccc2oc(-c3ccccc3Cl)nc2c1` , the measured inhibition on NAD-dependent protein deacetylase sirtuin-1 (Homo sapiens) (UniProt Q96EB6) was 27%

For the molecule `O=C(Cc1ccccc1)Nc1ccc2oc(-c3cccc(Cl)c3Cl)nc2c1` , the measured inhibition on NAD-dependent protein deacetylase sirtuin-1 (Homo sapiens) (UniProt Q96EB6) was 19%

For the molecule `O=C(Cc1ccccc1)Nc1ccc2oc(-c3ccccc3Cl)nc2c1` , the measured inhibition on NAD-dependent protein deacetylase sirtuin-1 (Homo sapiens) (UniProt Q96EB6) was 17%

Cited source for all entries: ChEMBL document CHEMBL2380241
